Source: patent US20170052184A1

Target: T1, HCV Core1-169 (hepatitis C virus (HCV-1), UniProt P26664 1-169)
T1 sequence: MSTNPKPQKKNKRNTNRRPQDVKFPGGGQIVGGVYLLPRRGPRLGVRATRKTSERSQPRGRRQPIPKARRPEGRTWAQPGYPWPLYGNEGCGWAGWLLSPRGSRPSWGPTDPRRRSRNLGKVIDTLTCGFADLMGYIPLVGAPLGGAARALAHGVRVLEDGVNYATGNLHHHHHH
Experiment: SPR sandwich, capture mAb C11-9
MEASURED ATTRIBUTE: expected percent binding

[Q] GET /values?readout=expected percent binding&item= HCV 208B-589 (antibody, V domains shown) VH: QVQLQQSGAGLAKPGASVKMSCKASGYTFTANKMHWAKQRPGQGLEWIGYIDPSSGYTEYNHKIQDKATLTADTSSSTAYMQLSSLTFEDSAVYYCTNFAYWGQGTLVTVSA VL: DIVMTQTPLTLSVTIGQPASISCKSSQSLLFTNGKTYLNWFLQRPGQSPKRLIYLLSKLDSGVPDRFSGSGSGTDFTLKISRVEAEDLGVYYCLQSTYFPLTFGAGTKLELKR
[A] 6.7%

[Q] GET /values?readout=expected percent binding&item= HCV 208B-911 (antibody, V domains shown) VH: QVHLQQPGAELVRPGVSVKLSCKASGYTFTTYSINWMKQRPGQGLEWIGNIYPSTSHTNYNQKFRDKATMTVDKSSSTAYMQLSSPTSEDSAVYYCTINAYSMDYWGQGTSVTVSS VL: QIVLTQSPEIMSASPGEKVTITCSASSSVSFMYWFQQKPGTSPKLWIYITSNLASGVPTRFSGSGSGTSYSLTISRMEAEDAATYYCQQRSSFPYTFGGGTKLEMKR
[A] ≤ 1%

[Q] GET /values?readout=expected percent binding&item= HCV 208A-293 (antibody, V domains shown) VH: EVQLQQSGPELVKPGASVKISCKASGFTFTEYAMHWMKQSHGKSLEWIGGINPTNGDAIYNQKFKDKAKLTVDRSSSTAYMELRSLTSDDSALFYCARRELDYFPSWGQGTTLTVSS VL: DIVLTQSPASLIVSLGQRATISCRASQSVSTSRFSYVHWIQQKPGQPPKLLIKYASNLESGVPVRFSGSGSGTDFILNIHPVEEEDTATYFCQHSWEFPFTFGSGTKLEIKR
[A] 11%

[Q] GET /values?readout=expected percent binding&item= HCV 208B-327 (antibody, V domains shown) VH: EVQLVESGGGLVKPGGSLKLSCAASGFTFSDSYMYWVRQTPDQRLEWVATISDGGSYTFYPDSVKGRFTISRDNAQNNLYLQMSSLKSEDTAMYYCASPHAGYFGWFAYWGRGTLVTVSA VL: DIVMTQAAFSNPVTPGTSVSISCRSSKSLLHSNGITYLYWYLQKPGQSPQLLIYQMSKIASGVPDRFRSSGSGTDFTLRISRVEAADVGVYYCAQNLELPWTFGGGTKLEIKR
[A] ≤ 1%

[Q] GET /values?readout=expected percent binding&item= HCV 208A-134 (antibody, V domains shown) VH: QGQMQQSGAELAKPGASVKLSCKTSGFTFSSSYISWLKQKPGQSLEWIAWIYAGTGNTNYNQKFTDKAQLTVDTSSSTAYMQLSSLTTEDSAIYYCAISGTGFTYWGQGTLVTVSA VL: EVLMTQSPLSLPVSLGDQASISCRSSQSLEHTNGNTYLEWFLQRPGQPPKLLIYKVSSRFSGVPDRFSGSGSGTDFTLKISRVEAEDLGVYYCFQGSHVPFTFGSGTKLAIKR
[A] ≤ 1%

[Q] GET /values?readout=expected percent binding&item= HCV 208B-408 (antibody, V domains shown) VH: EVKLVESGGGLVQPGGSLRLSCASSGFTFTDYYMSWVRQPPGKALEWLGFIRNKAYGYTTEFSASVNGRFTISRDDSQSVPYLQMNTLRAEDSATYYCARVLYYDYGGFAYWGQGTLVTVST VL: DIQMTQSPASLSASVGETVTITCRASGNIHTYLAWYQQKQGKSPQLLVYNANTLADGVPSRFSGSGSGTQFSLKINSLQPDDFGSYYCQHFWSAPWTFGGGTQLEIKR
[A] ≤ 1%

[Q] GET /values?readout=expected percent binding&item= HCV 208A-126 (antibody, V domains shown) VH: QLQQSGPVLVKPGASVMISCKTSGYTFTENAMHWVKQSHGKSLEWIGGVNPNNGDTIFNQKFKGKATLTVDKSSNTAFTELRSLPSEESTVYYCVRRGLDFFDYWGQGTSVTVSS VL: DIVLTQSPASLAVSLGQRATISCRASQSVSTSRYSYMHWYQQKPGQPPKLLIKYASNLESGVPARFSGSGSGTDFTLNIHPVAEEDTAAYYCQHSWEFPFTFGSGTKLEIKR
[A] ≤ 1%

[Q] GET /values?readout=expected percent binding&item= HCV 208A-874 (antibody, V domains shown) VH: QVQLQQPGAELVKPGASVKLSCKASGYTLSSYWMHWVKQRPGQGLEWIGEIHPSDSYTSYNQKFKDKATLTVDKSSSTAYMQLSSLTSEDSAVYYCARGGYYRYDEFAYWGQGTLVTVSA VL: DIVMTQSHKFMSTSIGDRVSITCKASQNVSPAVAWYQQKPGQSPKLLIYSASSRYTGVPDRFTGSGSGTAFTFTISSVQAEDLAVYFCQQHFSTPWTFGGGTMLEIKR
[A] ≤ 1%

[Q] GET /values?readout=expected percent binding&item= HCV 208B-1096 (antibody, V domains shown) VH: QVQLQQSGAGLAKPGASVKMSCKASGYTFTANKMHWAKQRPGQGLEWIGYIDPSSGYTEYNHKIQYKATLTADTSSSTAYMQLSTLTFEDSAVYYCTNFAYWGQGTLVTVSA VL: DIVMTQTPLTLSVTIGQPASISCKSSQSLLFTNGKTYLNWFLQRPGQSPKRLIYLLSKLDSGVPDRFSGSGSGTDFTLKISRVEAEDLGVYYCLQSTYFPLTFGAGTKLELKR
[A] 11.4%

[Q] GET /values?readout=expected percent binding&item= HCV 208B-826 (antibody, V domains shown) VH: DVQLVESGGGLVQAGGSRKLSCAASGFPFSSFGMHWVRQAPEKGLEWVASISSRTSKIYYADNLKGRFTISRDNPKNTLFLQMTSLGSEDTAMYYCVRSVFGNSYWFFDVWGAGTTVTVSS VL: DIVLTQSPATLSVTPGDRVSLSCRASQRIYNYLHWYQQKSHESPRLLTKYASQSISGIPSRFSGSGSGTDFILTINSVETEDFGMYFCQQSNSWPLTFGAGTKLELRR
[A] ≤ 1%
